Target: SOCS2-ElonginB-ElonginC complex, wild-type (human | , UniProt O14508 32-198; Q15370 1-104; Q15369 17-112)
Sequence (O14508 32-198, chain 1 of 3): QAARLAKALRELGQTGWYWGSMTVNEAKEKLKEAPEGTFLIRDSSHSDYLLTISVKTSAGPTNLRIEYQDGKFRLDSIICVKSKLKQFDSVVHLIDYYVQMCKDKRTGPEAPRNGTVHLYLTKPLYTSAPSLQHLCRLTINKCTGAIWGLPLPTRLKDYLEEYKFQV
Sequence (Q15370 1-104, chain 2 of 3): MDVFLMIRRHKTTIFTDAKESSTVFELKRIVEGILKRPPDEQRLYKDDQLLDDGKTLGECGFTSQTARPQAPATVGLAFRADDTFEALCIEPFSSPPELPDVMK
Sequence (Q15369 17-112, chain 3 of 3): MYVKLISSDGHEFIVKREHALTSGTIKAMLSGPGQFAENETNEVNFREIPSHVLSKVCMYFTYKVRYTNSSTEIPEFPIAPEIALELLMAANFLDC
Assay: SPR; biotinylated SBC (wild-type or mutant) immobilised, peptide injected at 0.08-60 μM; 20 mM HEPES pH 7.5, 150 mM NaCl, 1 mM TCEP, 0.005% Tween20, 10 °C; steady-state affinity, 1:1 model
Details: both partners purified
Where no end group is shown, it is not given here. [ ]: non-standard residue; d: D form. pY = N[C@@H](Cc1ccc(OP(=O)(O)O)cc1)C(=O)O
Could you mark each record Met if its Kd falls strictly under 20 µM, and Not met if it equals or exceeds it?

[[record]]
binder = "ASFE[pY]TIADPS-NH2 [EpoR_pY426 peptide, alanine at pY(+3)]"
categorylabel = "Not met"

[[record]]
binder = "ASFE[pY]TILDAS-NH2 [EpoR_pY426 peptide, alanine at pY(+5)]"
categorylabel = "Met"

[[record]]
binder = "ASFE[pY]TILAPS-NH2 [EpoR_pY426 peptide, alanine at pY(+4)]"
categorylabel = "Met"

[[record]]
binder = "PVPD[pY]TSIHIA-NH2 [GHR_pY595 peptide, alanine at pY(+6)]"
categorylabel = "Met"

[[record]]
binder = "ASFE[pY]TILDPA-NH2 (N-terminus assumed; SMILES CC[C@H](C)[C@H](NC(=O)[C@@H](NC(=O)[C@H](Cc1ccc(OP(=O)(O)O)cc1)NC(=O)[C@H](CCC(=O)O)NC(=O)[C@H](Cc1ccccc1)NC(=O)[C@H](CO)NC(=O)[C@H](C)N)[C@@H](C)O)C(=O)N[C@@H](CC(C)C)C(=O)N[C@@H](CC(=O)O)C(=O)N1CCC[C@H]1C(=O)N[C@@H](C)C(N)=O) [EpoR_pY426 peptide, alanine at pY(+6)]"
categorylabel = "Met"

[[record]]
binder = "ASFE[pY]AILDPS-NH2 (N-terminus assumed; SMILES CC[C@H](C)[C@H](NC(=O)[C@H](C)NC(=O)[C@H](Cc1ccc(OP(=O)(O)O)cc1)NC(=O)[C@H](CCC(=O)O)NC(=O)[C@H](Cc1ccccc1)NC(=O)[C@H](CO)NC(=O)[C@H](C)N)C(=O)N[C@@H](CC(C)C)C(=O)N[C@@H](CC(=O)O)C(=O)N1CCC[C@H]1C(=O)N[C@@H](CO)C(N)=O) [EpoR_pY426 peptide, alanine at pY(+1)]"
categorylabel = "Met"


meta.source: paper PMC6557900
